Each item that follows carries a reported EC50, in vitro neutralization activity, T = 0 weeks.
Target: T1, human IL-17A (construct not stated) (human, UniProt Q16552 24-155, limits assumed)
T1 sequence: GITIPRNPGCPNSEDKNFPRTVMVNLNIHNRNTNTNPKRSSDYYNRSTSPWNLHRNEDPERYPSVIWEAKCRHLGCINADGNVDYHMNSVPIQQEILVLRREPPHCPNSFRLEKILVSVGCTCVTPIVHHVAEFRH
Experiment: cell-based or functional assay
Write the quantity with the unit trailing the number.

Worked examples, 3 binders total:
binder | result
XAB5 (antibody, human IgG1, kappa, V domains shown) VH: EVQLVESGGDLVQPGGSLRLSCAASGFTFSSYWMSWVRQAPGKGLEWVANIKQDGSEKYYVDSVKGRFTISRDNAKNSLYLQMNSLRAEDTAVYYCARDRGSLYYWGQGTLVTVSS VL: AIQLTQSPSSLSASVGDRVTITCRPSQGINWELAWYQQKPGKAPKLLIYDASSLENGVPSRFSGSGSGTDFTLTISSLQPEDFATYYCQQFNSYPLTFGGGTKVEIKR | 0.045 µg/mL
XAB4 (antibody, human IgG1, kappa, V domains shown, also called MB435 N56Q) VH: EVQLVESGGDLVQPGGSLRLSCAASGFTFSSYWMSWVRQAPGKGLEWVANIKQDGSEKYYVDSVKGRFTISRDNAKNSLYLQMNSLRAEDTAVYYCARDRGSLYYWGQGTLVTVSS VL: AIQLTQSPSSLSASVGDRVTITCRPSQGINWELAWYQQKPGKAPKLLIYDASSLEQGVPSRFSGSGSGTDFTLTISSLQPEDFATYYCQQFNSYPLTFGGGTKVEIKR | 0.048 µg/mL
XAB2 (antibody, human IgG1, kappa, V domains shown) VH: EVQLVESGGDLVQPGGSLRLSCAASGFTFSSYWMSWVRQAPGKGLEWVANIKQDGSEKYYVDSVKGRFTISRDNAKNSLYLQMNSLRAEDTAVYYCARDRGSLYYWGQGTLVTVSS VL: AIQLTQSPSSLSASVGDRVTITCRPSQVIISALAWYQQKPGKAPKLLIYDASSLEQGVPSRFSGSVSGTDFTLTISSLQPEDFATYYCQQFDSYPLTFGGGTKVEIKR | 0.045 µg/mL

Requested field: EC50, in vitro neutralization activity, T = 0 weeks. Item: XAB3 (antibody, human IgG1, kappa, V domains shown, also called MB468 N56Q) VH: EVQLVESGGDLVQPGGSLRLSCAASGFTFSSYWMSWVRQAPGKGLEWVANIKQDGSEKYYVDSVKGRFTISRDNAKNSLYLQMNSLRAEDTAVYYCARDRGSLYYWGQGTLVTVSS VL: AIQLTQSPSSLSASVGDRVTITCRPSQGIYWELAWYQQKPGKAPKLLIYDASSLEQGVPSRFSGSGSGTDFTLTISSLQPEDFATYYCQQFNSYPLTFGGGTKVEIKR
0.04 µg/mL

Source of measurements: patent US20180194839A1
